- Measured target: HSV-1 DNA polymerase (Human herpesvirus 1, UniProt P04292)
- Construct: HSV-1 DNA polymerase was extracted from HSV-1-infected Vero cells; made in house; host or cells: Vero cells infected with HSV-1 (KOS strain); virus-encoded native enzyme, purified on DEAE-cellulose and phosphate cellulose columns
- Sequence (P04292 whole entry): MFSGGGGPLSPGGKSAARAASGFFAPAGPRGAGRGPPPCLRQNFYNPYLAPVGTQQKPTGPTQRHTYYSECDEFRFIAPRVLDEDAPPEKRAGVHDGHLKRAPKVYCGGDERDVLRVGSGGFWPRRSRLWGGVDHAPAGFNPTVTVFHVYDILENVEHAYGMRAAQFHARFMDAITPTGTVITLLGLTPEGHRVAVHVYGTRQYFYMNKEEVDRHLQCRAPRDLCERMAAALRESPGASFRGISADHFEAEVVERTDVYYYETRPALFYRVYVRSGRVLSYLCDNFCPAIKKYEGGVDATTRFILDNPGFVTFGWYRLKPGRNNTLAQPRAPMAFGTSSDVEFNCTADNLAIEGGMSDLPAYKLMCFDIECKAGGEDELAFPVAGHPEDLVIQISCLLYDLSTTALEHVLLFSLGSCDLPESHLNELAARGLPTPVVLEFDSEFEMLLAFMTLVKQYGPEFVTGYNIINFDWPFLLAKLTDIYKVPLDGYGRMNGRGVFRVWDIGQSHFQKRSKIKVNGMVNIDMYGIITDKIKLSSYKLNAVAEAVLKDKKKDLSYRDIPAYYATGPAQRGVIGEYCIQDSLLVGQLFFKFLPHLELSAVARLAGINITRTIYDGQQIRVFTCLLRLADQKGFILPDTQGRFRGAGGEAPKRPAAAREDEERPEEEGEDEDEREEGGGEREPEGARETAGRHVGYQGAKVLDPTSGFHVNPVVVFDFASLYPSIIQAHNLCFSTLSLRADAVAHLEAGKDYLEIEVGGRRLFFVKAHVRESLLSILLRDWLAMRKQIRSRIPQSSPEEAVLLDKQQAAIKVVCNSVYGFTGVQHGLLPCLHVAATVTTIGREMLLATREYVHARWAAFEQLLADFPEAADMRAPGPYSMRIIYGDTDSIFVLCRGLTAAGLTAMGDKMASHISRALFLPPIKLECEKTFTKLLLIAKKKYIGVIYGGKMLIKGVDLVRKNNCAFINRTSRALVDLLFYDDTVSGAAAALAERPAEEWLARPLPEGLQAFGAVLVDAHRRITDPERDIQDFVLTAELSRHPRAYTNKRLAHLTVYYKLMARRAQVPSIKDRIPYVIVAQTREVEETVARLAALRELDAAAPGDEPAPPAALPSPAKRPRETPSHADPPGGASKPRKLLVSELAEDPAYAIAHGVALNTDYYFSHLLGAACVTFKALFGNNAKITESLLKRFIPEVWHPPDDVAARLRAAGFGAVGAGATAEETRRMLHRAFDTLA
- Measurement notes: Radiolabeled nucleotide-based HSV-1 DNA polymerase inhibition assay
- Format: biochemical
- Measurement setup: with respect to dTTP incorporation ([3H]-dTTP), 37 °C, 30 min
Value kind: IC50 (nM)
Answer format: numeric, nM implied, no suffix.

INPUT: Given COc1cc(C(=O)O)c2c(c1C)OC(=O)c1c(C)cc(O)c(C=O)c1O2 , state its recorded IC50.
OUTPUT: 700

---

- Measured target: HSV-1 DNA polymerase (Human herpesvirus 1, UniProt P04292)
- Construct: HSV-1 DNA polymerase was extracted from HSV-1-infected Vero cells; made in house; host or cells: Vero cells infected with HSV-1 (KOS strain); virus-encoded native enzyme, purified on DEAE-cellulose and phosphate cellulose columns
- Measurement notes: Radiolabeled nucleotide-based HSV-1 DNA polymerase inhibition assay
- Format: biochemical
- Measurement setup: with respect to dGTP incorporation ([3H]-dGTP), 37 °C, 30 min
Value kind: pIC50
// returns pIC50 (minus log10 of molar concentration), number only

INPUT: Given Nc1nc2c(ncn2COCCOP(=O)(O)OP(=O)(O)OP(=O)(O)O)c(=O)[nH]1 [ACV-TP, acyclovir triphosphate] , state its recorded pIC50.
OUTPUT: 6.05

Where do these numbers come from? They come from paper PMC6720901.
